These entries and their values trace back to patent US20050042664A1.

Target Or Test System: T1, human EphA2 (human, UniProt P29317 24-534, limits assumed)
T1 construct: Target of the BIAcore analysis as named in the text
T1 sequence (P29317 24-534 limits assumed): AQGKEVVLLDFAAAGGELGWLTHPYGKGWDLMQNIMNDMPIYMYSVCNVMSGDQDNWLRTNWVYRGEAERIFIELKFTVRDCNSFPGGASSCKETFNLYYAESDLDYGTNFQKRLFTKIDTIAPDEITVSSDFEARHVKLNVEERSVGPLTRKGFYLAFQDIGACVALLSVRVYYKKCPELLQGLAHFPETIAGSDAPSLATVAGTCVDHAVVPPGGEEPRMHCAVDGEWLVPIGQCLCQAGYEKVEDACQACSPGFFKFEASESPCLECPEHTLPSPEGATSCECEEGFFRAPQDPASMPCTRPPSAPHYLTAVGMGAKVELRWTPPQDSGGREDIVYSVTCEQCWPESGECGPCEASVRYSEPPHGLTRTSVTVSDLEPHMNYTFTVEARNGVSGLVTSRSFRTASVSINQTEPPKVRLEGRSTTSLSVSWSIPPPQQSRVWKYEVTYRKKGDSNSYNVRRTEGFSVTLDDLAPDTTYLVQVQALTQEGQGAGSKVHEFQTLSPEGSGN
Protocol Description: BIAcore; format not stated
Measured Attribute: pKd
Remember, pKd is on a log scale: it is -log10 of the molar concentration.

Would you please look over these solved cases?
| Binder | pKd |
| --- | --- |
| Chimaeric version of EP101 (hu IgG1) (antibody, V domains shown, Chimeric Fab cloned and expressed as a full length human IgG1; also called chimeric version of anti-EphA2 antibody) VH: EVKLVESGGGLVQPGGSLSLSCAASGFTFTDYSMNWVRQPPGKALEWLGFIRNKANDYTTEYSASVKGRFTISRDNSQSILYLQMNALRAEDSATYYCVRYPRYHAMDSWGQGTSVTVSS VL: DIVLTQSPATLSVTPGDSVNLSCRASQSISNNLHWYQQKSHESPRLLIKYVFQSISGIPSRFSGSGSGTDFTLSINSVETEDFGMYFCQQSNSWPLTFGAGTKLELK | 9.52 |
| Humanized version II of EP101 (hu IgG1) (antibody, V domains shown) VH: QMQLVQSGPEVKKPGTSVKVSCKASGFTFTDYSMNWVRQARGQRLEWIGFIRNKANDYTTEYSASVKGRVTITRDMSTSTAYMELSSLRSEDTAVYYCARYPRYHAMDSWGQGTSVTVSS VL: DIQMTQSPSSLSASVGDRVTITCRASQSISNNLHWYQQKPGKAPKLLIKYVFQSISGVPSRFSGSGSGTDFTFTISSLQPEDFATYYCQQSNSWPLTFGGGTKVEIK | 8.92 |
| Humanized version III of EP101 (hu IgG1) (antibody, V domains shown) VH: QMQLVQSGPEVKKPGTSVKVSCKASGFTFTDYSMNWVRQARGQRLEWIGFIRNKANDYTTEYSASVKGRVTITRDMSTSTAYMELSSLRSEDTAVYYCARYPRYHAMDSWGQGTSVTVSS VL: DIVMTQSPSSLSASVGDRVTIICRASQSISNNLHWYQQKPGKAPKLLIKYVFQSISGVPSRFSGSGSGTDFTFTISSLQPEDFATYYCQQSNSWPLTFGGGTKVEIK | 8.89 |

Could you now look at the following binder, please?
pKd reading for Humanized version I of EP101 (hu IgG1) (antibody, V domains shown) VH: QMQLVQSGPEVKKPGTSVKVSCKASGFTFTDYSMNWVRQARGQRLEWLGFIRNKANDYTTEYSASVKGRVTITRDMSTSTAYMELSSLRSEDTAVYYCARYPRYHAMDSWGQGTSVTVSS VL: DIVMTQSPSSLSASVGDRVTIICRASQSISNNLHWYQQKPGKAPKLLIKYVFQSISGVPSRFSGSGSGTDFTFTISSLQPEDFATYYCQQSNSWPLTFGGGTKVEIK : 9.15
